test_method_notes: Toxicity liver stage against HepG2, at 10uM
Assay type: cell-based
Parameters: test concentration 10 uM, cell line HepG2-A16-CD81EGFP
measurement_conditions: human, HepG2-A16-CD81EGFP cells; read-out: INHIBITION
Hi there, I'd appreciate the recorded cytotoxicity at 10 µM for every entry that follows.
Field: numeric (%). Do not append units.

Q) If you can, please state the reported cytotoxicity at 10 µM value of CCc1n[nH]c(C2CN(Cc3nnc(C4CCC4)o3)CCO2)n1 (configuration not stated) .
A) -6.28

Q) If you can, please state the reported cytotoxicity at 10 µM value of COc1ccc(-c2nnc(C(C)N3CCOC(C)(C)C3)o2)cc1 (configuration not stated) .
A) 2.62

Q) If you can, please state the reported cytotoxicity at 10 µM value of CNC(=O)C1CN(C(=O)COc2ccccc2)Cc2cn(C)nc21 (configuration not stated) .
A) -10.4

Q) If you can, please state the reported cytotoxicity at 10 µM value of CCCn1nc2c(cc1=O)CN(CC(=O)N(C)c1nccs1)CC2 .
A) 1.25

Q) If you can, please state the reported cytotoxicity at 10 µM value of COCC(=O)N1CCC(c2nccnc2Oc2cccnc2C)CC1 .
A) 6.79

Q) If you can, please state the reported cytotoxicity at 10 µM value of CC(C)NC(=O)[C@H]1C[C@@H]2[C@@H](C1)OCCN2Cc1nccs1 .
A) 6.1

Q) If you can, please state the reported cytotoxicity at 10 µM value of COc1cc(CNC2CCc3nc(C)nn3C2)cc2c1OCCO2 (configuration not stated) .
A) -9.16

----------
test_method_notes: Toxicity liver stage against HepG2, at 10uM
Assay type: cell-based
Design: test concentration 10 uM, cell line HepG2-A16-CD81EGFP
measurement_conditions: human, HepG2-A16-CD81EGFP cells; read-out: INHIBITION
property_label: cytotoxicity at 10 µM (%)
Field: numeric (%). Do not append units.

Q) If you can, please state the reported cytotoxicity at 10 µM value of Cc1ccc(-c2nc(CC(=O)N3CCCC(NC(=O)C(C)C)C3)cs2)o1 (stereo not given) .
A) -50.5

Q) If you can, please state the reported cytotoxicity at 10 µM value of O=C(NC1CC(F)(F)C1)[C@]12COC[C@H]1CN(Cc1ccsc1)C2 .
A) -109

Q) If you can, please state the reported cytotoxicity at 10 µM value of COCCC(=O)Nc1cnn(COc2ccc(F)cc2Cl)c1 .
A) -8.68

Q) If you can, please state the reported cytotoxicity at 10 µM value of Cc1cnn(CC2CCCCN2C(=O)c2ccc3[nH]cnc3c2)c1 (stereo not given) .
A) -9.75

Q) If you can, please state the reported cytotoxicity at 10 µM value of Cc1cccc(C(C)(C)NC(=O)CCS(C)(=O)=O)c1 .
A) 2.41

----------
test_method_notes: Toxicity liver stage against HepG2, at 10uM
Type: cell-based
Parameters: test concentration 10 uM, cell line HepG2-A16-CD81EGFP
measurement_conditions: human, HepG2-A16-CD81EGFP cells; read-out: INHIBITION
property_label: cytotoxicity at 10 µM (%)
Field: numeric (%). Do not append units.

Q) If you can, please state the reported cytotoxicity at 10 µM value of O=C([C@@H]1C[C@@H]2CCN(C3CCOCC3)C[C@@H]2O1)N1CCCC1 .
A) 6.81

Q) If you can, please state the reported cytotoxicity at 10 µM value of NC(=O)CCCNC(=O)c1cc(Br)c2c(c1)OCCO2 .
A) 9.31

Q) If you can, please state the reported cytotoxicity at 10 µM value of O=C(NC1CCN(CC2CC2)C1)c1ccc(N2CCC(O)CC2)cc1 (stereo not drawn) .
A) -11.8

Q) If you can, please state the reported cytotoxicity at 10 µM value of CC1CC(=O)c2cc(C(=O)N3CCOCC3)c(=O)[nH]c2C1 (stereo not drawn) .
A) -3.06

Q) If you can, please state the reported cytotoxicity at 10 µM value of COc1cc2cc(C)c(SCCN3CCCC3)nc2cc1OC .
A) -7.48

Q) If you can, please state the reported cytotoxicity at 10 µM value of c1nnc(Nc2cncc(C3CCCN3)n2)s1 (stereo not drawn) .
A) 3.58

Q) If you can, please state the reported cytotoxicity at 10 µM value of Cc1cc(CN2C[C@@H]3CN(C(=O)c4ccco4)CCO[C@@H]3C2)no1 .
A) -141

Q) If you can, please state the reported cytotoxicity at 10 µM value of Cc1cccc(CN2C[C@@H]3CN(C(=O)NC(C)C)C[C@@H]3C2=O)c1 .
A) -12.9

Q) If you can, please state the reported cytotoxicity at 10 µM value of CCOc1ccnc(N2CCN(C(=O)c3cc(Cl)c[nH]3)CC2)n1 .
A) -9.29

Q) If you can, please state the reported cytotoxicity at 10 µM value of CS(=O)(=O)Cc1nc(CN2CCc3ccccc3CC2)cs1 .
A) -7.73

Q) If you can, please state the reported cytotoxicity at 10 µM value of Cn1c(CN2CCCCCC2)cc(=O)c(O)c1CN1CCCC1 .
A) 13.9

Q) If you can, please state the reported cytotoxicity at 10 µM value of CC(C)[C@@H]1CN(CCCOc2ccc(F)cc2)C[C@H]1NS(C)(=O)=O .
A) -46.4

Q) If you can, please state the reported cytotoxicity at 10 µM value of Cc1nn(C)c(C)c1C1COCCN1C(=O)CC(C)(C)C (stereo not drawn) .
A) -5.07

Q) If you can, please state the reported cytotoxicity at 10 µM value of CN1CCCN(C(=O)c2ccn3ccnc3c2)CC1 .
A) -2.38

Q) If you can, please state the reported cytotoxicity at 10 µM value of COc1ccc(/C=C/CN2CCCC3(C2)CN(C)C(=O)O3)cc1 (stereo not drawn) .
A) -2.67

Q) If you can, please state the reported cytotoxicity at 10 µM value of COC(=O)C(C)CN(C)S(=O)(=O)c1c(Br)cc2[nH]c(=O)oc2c1Cl (stereo not drawn) .
A) 8.73

Q) If you can, please state the reported cytotoxicity at 10 µM value of COc1ccnc(N2CCc3ccc(OC(F)F)cc3C2)n1 .
A) -4.32

Q) If you can, please state the reported cytotoxicity at 10 µM value of Cc1cc(C)n(C2CCCN(C(=O)c3ccc4c(c3)COC4)C2)n1 (stereo not drawn) .
A) -6.1
